target desc: MRP2 (ABCC2) (Homo sapiens)
Sequence (Q92887 whole entry): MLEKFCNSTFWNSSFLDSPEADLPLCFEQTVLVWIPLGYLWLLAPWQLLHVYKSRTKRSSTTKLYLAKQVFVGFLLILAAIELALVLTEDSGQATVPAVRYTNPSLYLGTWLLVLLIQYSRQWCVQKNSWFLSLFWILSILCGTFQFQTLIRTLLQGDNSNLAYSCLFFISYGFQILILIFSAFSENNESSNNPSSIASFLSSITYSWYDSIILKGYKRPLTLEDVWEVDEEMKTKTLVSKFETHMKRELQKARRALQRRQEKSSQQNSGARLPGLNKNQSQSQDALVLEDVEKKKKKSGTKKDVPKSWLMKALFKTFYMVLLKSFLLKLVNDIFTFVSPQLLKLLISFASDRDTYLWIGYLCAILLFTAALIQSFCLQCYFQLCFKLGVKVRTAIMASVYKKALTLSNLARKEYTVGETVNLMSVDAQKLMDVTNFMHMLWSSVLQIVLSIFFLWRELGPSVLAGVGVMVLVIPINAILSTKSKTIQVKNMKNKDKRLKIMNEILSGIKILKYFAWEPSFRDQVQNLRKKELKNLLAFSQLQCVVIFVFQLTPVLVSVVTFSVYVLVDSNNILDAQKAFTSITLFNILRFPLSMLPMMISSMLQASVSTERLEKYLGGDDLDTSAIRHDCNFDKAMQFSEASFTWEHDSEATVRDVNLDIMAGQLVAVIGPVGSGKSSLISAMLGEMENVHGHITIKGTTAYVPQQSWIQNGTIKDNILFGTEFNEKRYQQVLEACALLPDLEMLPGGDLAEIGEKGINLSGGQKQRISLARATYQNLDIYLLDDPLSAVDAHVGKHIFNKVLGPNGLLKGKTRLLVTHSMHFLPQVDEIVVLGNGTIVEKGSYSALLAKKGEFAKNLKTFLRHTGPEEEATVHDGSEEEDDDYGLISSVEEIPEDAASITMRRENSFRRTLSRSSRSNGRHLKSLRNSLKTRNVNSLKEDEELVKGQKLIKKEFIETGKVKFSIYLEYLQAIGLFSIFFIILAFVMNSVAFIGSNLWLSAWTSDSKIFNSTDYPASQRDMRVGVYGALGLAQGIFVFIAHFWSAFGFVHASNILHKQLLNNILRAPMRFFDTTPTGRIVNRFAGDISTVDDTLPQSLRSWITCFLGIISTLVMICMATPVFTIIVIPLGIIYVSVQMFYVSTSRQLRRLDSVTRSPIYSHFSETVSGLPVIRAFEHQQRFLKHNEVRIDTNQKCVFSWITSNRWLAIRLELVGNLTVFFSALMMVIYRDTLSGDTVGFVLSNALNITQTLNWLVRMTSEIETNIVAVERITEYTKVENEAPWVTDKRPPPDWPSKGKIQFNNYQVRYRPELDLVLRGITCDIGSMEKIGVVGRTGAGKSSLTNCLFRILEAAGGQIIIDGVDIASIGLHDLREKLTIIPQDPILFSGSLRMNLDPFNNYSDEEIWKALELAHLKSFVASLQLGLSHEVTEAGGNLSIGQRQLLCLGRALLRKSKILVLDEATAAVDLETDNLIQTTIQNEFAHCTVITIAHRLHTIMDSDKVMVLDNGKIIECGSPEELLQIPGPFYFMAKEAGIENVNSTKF
method: in vitro
measurement parameters: probe estradiol-17-beta-glucuronide
Description: Effect on human MRP2-mediated estradiol-17-beta-glucuronide transport in Sf9 cells inverted membrane vesicles relative to control
observation type: activity (%)
Value expressed in %; do not type the unit.

In the examples that follow, each entry is paired with its recorded activity.
[
  {
    "compound": "Clc1ccccc1C(c1ccccc1)(c1ccccc1)n1ccnc1 [CLOTRIMAZOLE]",
    "target desc": "MRP2 (ABCC2) (Homo sapiens)",
    "observation type": "activity",
    "observed value": 14
  },
  {
    "compound": "Oc1ccc(/C=C/c2cc(O)cc(O)c2)cc1 [RESVERATROL]",
    "target desc": "MRP2 (ABCC2) (Homo sapiens)",
    "observation type": "activity",
    "observed value": 75
  },
  {
    "compound": "C=C(C)[C@H]1Cc2c(ccc3c2O[C@@H]2COc4cc(OC)c(OC)cc4[C@@H]2C3=O)O1 [ROTENONE]",
    "target desc": "MRP2 (ABCC2) (Homo sapiens)",
    "observation type": "activity",
    "observed value": 92
  },
  {
    "compound": "CN1[C@@H]2CC[C@H]1C[C@@H](OC(=O)C(CO)c1ccccc1)C2 (some centres undefined) [ATROPINE]",
    "target desc": "MRP2 (ABCC2) (Homo sapiens)",
    "observation type": "activity",
    "observed value": 59
  },
  {
    "compound": "CC(=O)Nc1ccc(O[C@@H]2O[C@H](C(=O)O)[C@@H](O)[C@H](O)[C@H]2O)cc1 [ACETAMINOPHEN GLUCURONIDE]",
    "target desc": "MRP2 (ABCC2) (Homo sapiens)",
    "observation type": "activity",
    "observed value": 150
  },
  {
    "compound": "Cc1ccnc2c1NC(=O)c1cccnc1N2C1CC1 [NEVIRAPINE]",
    "target desc": "MRP2 (ABCC2) (Homo sapiens)",
    "observation type": "activity",
    "observed value": 121
  },
  {
    "compound": "O=C1NC(=O)C(c2ccccc2)(c2ccccc2)N1 [PHENYTOIN]",
    "target desc": "MRP2 (ABCC2) (Homo sapiens)",
    "observation type": "activity",
    "observed value": 125
  },
  {
    "compound": "Cc1nc2sccn2c(=O)c1CCN1CCC(=C(c2ccc(F)cc2)c2ccc(F)cc2)CC1 [RITANSERIN]",
    "target desc": "MRP2 (ABCC2) (Homo sapiens)",
    "observation type": "activity",
    "observed value": 86
  }
]

q: Report activity for CC(C)Cc1ccc(C(C)C(=O)O)cc1 (centres undefined) [IBUPROFEN] tested on MRP2 (ABCC2) (Homo sapiens).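 Note: Inside-out membrane vesicles from Sf9 insect cells expressing human MRP2, measuring uptake of the estradiol glucuronide substrate, expressed as percent of untreated control.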
a: 130

q: Entry to check: [H]/N=C(/N)N/C(=N/[H])NCCc1ccccc1 [PHENFORMIN]
a: 88

q: Entry to check: O=c1c(O)c(-c2ccc(O)c(O)c2)oc2cc(O)cc(O)c12 [QUERCETIN]
a: 40

q: Entry to check: O=C1c2c(O)ccc(O)c2C(=O)c2c(NCCNCCO)ccc(NCCNCCO)c21 [MITOXANTRONE]
a: 175

q: Entry to check: CCN(CC)Cc1cc(Nc2ccnc3cc(Cl)ccc23)ccc1O
a: 60

q: Entry to check: CC(=O)N1CCN(c2ccc(OC[C@H]3CO[C@](Cn4ccnc4)(c4ccc(Cl)cc4Cl)O3)cc2)CC1 [KETOCONAZOLE]
a: 76

q: Entry to check: NC12CC3CC(CC(C3)C1)C2 [AMANTADINE]
a: 101

q: Entry to check: COc1ccc2[nH]c([S+]([O-])Cc3ncc(C)c(OC)c3C)nc2c1 (centres undefined) [OMEPRAZOLE]
a: 101

q: Entry to check: COc1cccc([C@@]2(O)CCCC[C@@H]2CN(C)C)c1 [TRAMADOL]
a: 89

q: Entry to check: Cc1c(OCC(F)(F)F)ccnc1C[S+]([O-])c1nc2ccccc2[nH]1 (centres undefined) [LANSOPRAZOLE]
a: 34

q: Entry to check: C[C@H](CS)C(=O)N1CCC[C@H]1C(=O)O [CAPTOPRIL]
a: 104
